Read-out: 3-Hydroxy-3-Methylglutaryl-CoA Synthase 2 (HMGCS2), HMGCS2 (gene 3158)
Assay: LTEA_HepaRG_HMGCS2: Life Technologies and Expression Analysis (LTEA) Assay for 3-Hydroxy-3-Methylglutaryl-CoA Synthase 2 (HMGCS2) using HepaRG (AID 2283504)
Details: mRNA level, 48 h; actives raise or lower the signal
The source made the active and inactive calls. How the source made its calls: active means hit-call score of the fitted dose curve at least 0.9, where 1 is the maximum; inactive means score below 0.9.
Permitted responses: active, inactive

Sample answers from the record:
[[record]]
molecule = "CCC(=NOC/C=C/Cl)C1=C(O)CC(C2CCOCC2)CC1=O (configuration not stated)"
label = "inactive"

[[record]]
molecule = "COc1cc(OC)nc(Sc2cccc(Cl)c2C(=O)O)n1"
label = "inactive"

[[record]]
molecule = "CCCSP(=O)(OCC)SCCC"
label = "inactive"

[[record]]
molecule = "CCNc1nc(Cl)nc(NC(C)(C)C#N)n1"
label = "inactive"

[[record]]
molecule = "COc1cccc(C(=O)NN(C(=O)c2cc(C)cc(C)c2)C(C)(C)C)c1C"
label = "inactive"

[[record]]
molecule = "CCOP(=S)(OCC)Oc1ccc([N+](=O)[O-])cc1"
label = "inactive"


Prompt: For Cc1nn(-c2cc(NS(C)(=O)=O)c(Cl)cc2Cl)c(=O)n1C(F)F , which call appears in the assay record?
Response: inactive

Prompt: For Cc1cc(C2CC2)nc(Nc2ccccc2)n1 , which call appears in the assay record?
Response: inactive

Prompt: For CNc1cnn(-c2cccc(C(F)(F)F)c2)c(=O)c1Cl , which call appears in the assay record?
Response: active

Prompt: For CNC(=O)ON=C(SC)C(=O)N(C)C , which call appears in the assay record?
Response: inactive

Prompt: For CCc1cccc(CC)c1N(COC)C(=O)CCl , which call appears in the assay record?
Response: inactive

Prompt: For COP(=O)(OC)C(O)C(Cl)(Cl)Cl (configuration not stated) , which call appears in the assay record?
Response: inactive

Prompt: For CC(C)=CC1C(C(=O)OCN2C(=O)C3=C(CCCC3)C2=O)C1(C)C (configuration not stated) , which call appears in the assay record?
Response: inactive

Prompt: For CCC(CC)Nc1c([N+](=O)[O-])cc(C)c(C)c1[N+](=O)[O-] , which call appears in the assay record?
Response: inactive

Prompt: For Nc1nc(N)nc(NC2CC2)n1 , which call appears in the assay record?
Response: inactive

Prompt: For CSc1nc(NC(C)C)nc(NC(C)C)n1 , which call appears in the assay record?
Response: active

Prompt: For CCCCOC(=O)[C@@H](C)Oc1ccc(Oc2ccc(C#N)cc2F)cc1 , which call appears in the assay record?
Response: active

Prompt: For CCOP(=S)(Oc1cnc(C(C)(C)C)nc1)OC(C)C (configuration not stated) , which call appears in the assay record?
Response: active

Prompt: For CC(COc1ccc(Oc2ccccc2)cc1)Oc1ccccn1 (configuration not stated) , which call appears in the assay record?
Response: active

----------
Experiment: Tanguay_ZF_120hpf_OTIC_legacy: (Legacy) Oregon State University Tanguay Lab 120 Hour Post-fertilization zebrafish Assay for Otic Vesicle Malformation (AID 2283639)
Results filed as inconclusive are left out. Active and inactive are the calls of the source. The calls were made as follows: active = hit-call score of the fitted dose curve at least 0.9, where 1 is the maximum; inconclusive = response in the unintended direction; inactive = score below 0.9.
Permitted responses: 1 (active), -1 (inactive)

[[record]]
compound = "COP(=O)(OC)SCn1c(=O)oc2cc(Cl)cnc21"
label = -1

[[record]]
compound = "CCC(=O)Nc1ccc(Cl)c(Cl)c1"
label = -1

[[record]]
compound = "CNC(=O)ON=C(C)SC"
label = -1

[[record]]
compound = "COP(=O)(NC(C)=O)SC (centres undefined)"
label = -1

[[record]]
compound = "CC(C)N(C(=O)SCC(Cl)=C(Cl)Cl)C(C)C"
label = -1


Prompt: For CCCCSP(=O)(SCCCC)SCCCC , which call appears in the assay record?
Response: -1

Prompt: For O=c1ccc(=O)[nH][nH]1 , which call appears in the assay record?
Response: -1

Prompt: For CC(COc1ccc(Oc2ccccc2)cc1)Oc1ccccn1 (centres undefined) , which call appears in the assay record?
Response: -1

Prompt: For CC(=NC#N)N(C)Cc1ccc(Cl)nc1 , which call appears in the assay record?
Response: -1

Prompt: For CCC(=NOC/C=C/Cl)C1=C(O)CC(C2CCOCC2)CC1=O (centres undefined) , which call appears in the assay record?
Response: -1

Prompt: For Cc1nn(-c2cc(NS(C)(=O)=O)c(Cl)cc2Cl)c(=O)n1C(F)F , which call appears in the assay record?
Response: -1

Prompt: For CCCSP(=O)(OCC)Oc1ccc(Br)cc1Cl (centres undefined) , which call appears in the assay record?
Response: -1

Prompt: For CN(C)[C@@H]1C(=O)C(C(N)=O)=C(O)[C@@]2(O)C(=O)C3=C(O)c4c(O)cccc4[C@@](C)(O)[C@H]3[C@H](O)[C@@H]12 , which call appears in the assay record?
Response: -1

Prompt: For CN(C)NC(=O)CCC(=O)O , which call appears in the assay record?
Response: -1

Prompt: For CCc1cccc(CC)c1N(COC)C(=O)CCl , which call appears in the assay record?
Response: -1

----------
Test: IUF_NPC4_neurite_length_120hr: Leibniz Research Institute for Environmental Medicine (IUF) 120-hour Neuronal Morphology Assay for Neurite Length (NPC4) (AID 2284302)
Protocol: IUF_NPC2-5 is a cell-based, multiplexed assay that uses hNPC, a human primary neural progenitor cells, with measurements taken at 72 or 120 hours after chemical dosing in a 96-well plate. […] The processes radial glia migration, neuronal and oligodendrocyte migration as well as neuronal differentiation, neuronal morphology and oligodendrocyte differentiation are studied using automated phase contrast imaging and automated fluorescence imaging in combination with high content image analysis. […]
Calls of active or inactive are those of the source. The calls were made as follows: active = hit-call score of the fitted dose curve at least 0.9, where 1 is the maximum; inactive = score below 0.9.
readout_name: AC50

Some solved cases for reference:
[[record]]
molecule = "C[N+]1(C)CCCCC1"
observed = "inactive"

[[record]]
molecule = "COP(=O)(NC(C)=O)SC (configuration not stated)"
observed = "inactive"

[[record]]
molecule = "O=[N+]([O-])c1cc(C(F)(F)F)c(Cl)c([N+](=O)[O-])c1Nc1ncc(C(F)(F)F)cc1Cl"
observed = "1.02 µM (active)"

[[record]]
molecule = "CN1COCN(Cc2cnc(Cl)s2)C1=N[N+](=O)[O-]"
observed = "inactive"


Hey, quick one: what's AC50 for each of these?
1. CC(=NC#N)N(C)Cc1ccc(Cl)nc1
2. COP(=O)(OC)C(O)C(Cl)(Cl)Cl (configuration not stated)
3. CSC1=N[C@@](C)(c2ccccc2)C(=O)N1Nc1ccccc1

Response:
inactive
5.03 µM (active)
inactive

----------
Assay: ATG_BRE_CIS: Attagene CIS-FACTORIAL HepG2 Assay for human Bone Morphogenetic Protein (BMP) Response Element (BRE) (AID 2282933)
Details: HepG2 BMP response element reporter, Attagene transcription factor profiling; actives raise or lower the signal
Active and inactive are the calls of the source. Rule for the calls: active = hit-call score of the fitted dose curve at least 0.9, where 1 is the maximum; inactive = score below 0.9.
Permitted responses: active, inactive

Prompt: For FC(F)C(F)(F)OCC(Cn1cncn1)c1ccc(Cl)cc1Cl (stereo not given) , which call appears in the assay record?
Response: active

----------
Experiment: NVS_IC_rCaDHPRCh_L: NovaScreen (NVS) Ion Channel Assay for rat Calcium Channel, Type L, Dihydropyridine Site (CaDHPRCh_L) (AID 2283320)
Experimental: NVS_IC_rCaDHPRCh_L is a biochemical, single-readout assay that uses extracted gene-proteins from Rat cortical membranes in a tissue-based cell-free assay. Measurements were taken 1 hour after chemical dosing in a 48-well plate.NVS_IC_rCaDHPRCh_L is one of one assay component(s) measured or calculated from the NVS_IC_rCaDHPRCh_L assay. […] This assay endpoint, NVS_IC_rCaDHPRCh_L, was analyzed in the positive analysis fitting direction relative to DMSO as the negative control and baseline of activity. […]
Results filed as inconclusive are left out. The source made the active and inactive calls. How the source made its calls: active means hit-call score of the fitted dose curve at least 0.9, where 1 is the maximum; inconclusive means response in the unintended direction; inactive means score below 0.9.
Give AC50 for every item shown.

[[record]]
compound = "FC(F)C(F)(F)OCC(Cn1cncn1)c1ccc(Cl)cc1Cl (centres undefined)"
observed = "12.6 µM (active)"

[[record]]
compound = "C[Si](Cn1cncn1)(c1ccc(F)cc1)c1ccc(F)cc1"
observed = "25.7 µM (active)"


Please turn your attention to the following entry.
Prompt: Fill blank: measured AC50 of the compound CC[C@H](C)[C@H]1O[C@]2(C=C[C@@H]1C)C[C@@H]1C[C@@H](C/C=C(\C)[C@@H](O[C@H]3C[C@H](OC)[C@@H](O[C@H]4C[C@H](OC)[C@@H](NC)[C@H](C)O4)[C@H](C)O3)[C@@H](C)/C=C/C=C3\CO[C@@H]4[C@H](O)C(C)=C[C@@H](C(=O)O1)[C@]34O)O2 is ____.
Response: 4.83 µM (active)

----------
Read-out: cysteine-aspartic acid protease (CASP8), CASP8 (gene 841)
Experiment: LTEA_HepaRG_CASP8: Life Technologies and Expression Analysis (LTEA) Assay for cysteine-aspartic acid protease (CASP8) using HepaRG (AID 2283480)
Conditions: mRNA level, 48 h; actives raise or lower the signal
Active and inactive are the calls of the source. How the source made its calls: active means hit-call score of the fitted dose curve at least 0.9, where 1 is the maximum; inactive means score below 0.9.
readout_name: outcome

Some solved cases for reference:
[[record]]
molecule = "Cc1nn(-c2cc(NS(C)(=O)=O)c(Cl)cc2Cl)c(=O)n1C(F)F"
observed = "inactive"

[[record]]
molecule = "CN(C)C(=O)Nc1cccc(C(F)(F)F)c1"
observed = "inactive"

[[record]]
molecule = "CN(C)NC(=O)CCC(=O)O"
observed = "inactive"

[[record]]
molecule = "C[N+]1(C)CCCCC1"
observed = "inactive"

[[record]]
molecule = "CSc1nnc(C(C)(C)C)c(=O)n1N"
observed = "inactive"

[[record]]
molecule = "CCOP(=S)(OCC)SCCSCC"
observed = "inactive"

[[record]]
molecule = "CC(C)=CC1C(C(=O)OCN2C(=O)C3=C(CCCC3)C2=O)C1(C)C (stereo not drawn)"
observed = "inactive"

[[record]]
molecule = "CCC(=O)Nc1ccc(Cl)c(Cl)c1"
observed = "inactive"

[[record]]
molecule = "COc1ccc(C(=CC(=O)N2CCOCC2)c2ccc(Cl)cc2)cc1OC"
observed = "inactive"

[[record]]
molecule = "CC(C1CC1)C(O)(Cn1cncn1)c1ccc(Cl)cc1 (stereo not drawn)"
observed = "inactive"


Hey, quick one: what's outcome for each of these?
1. CCNc1nc(Cl)nc(NC(C)(C)C#N)n1
2. CNc1cnn(-c2cccc(C(F)(F)F)c2)c(=O)c1Cl

Response:
1. inactive
2. inactive

Prompt: Fill blank: measured outcome of the molecule Cc1cc(C2CC2)nc(Nc2ccccc2)n1 is ____.
Response: inactive
